IC50 overview
test system: Dihydrofolate reductase (Pneumocystis carinii)
Sequence (P16184 whole entry): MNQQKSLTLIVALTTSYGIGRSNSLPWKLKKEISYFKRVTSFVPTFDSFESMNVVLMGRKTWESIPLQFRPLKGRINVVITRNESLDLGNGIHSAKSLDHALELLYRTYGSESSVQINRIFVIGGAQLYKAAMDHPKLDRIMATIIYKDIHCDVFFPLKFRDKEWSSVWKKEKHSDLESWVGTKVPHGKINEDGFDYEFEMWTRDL
measure: IC50 (µM)

# smiles code, measure, unit abbrev, readout value
measured = [
    ("CCc1nc(N)nc(N)c1-c1ccc(Cl)c(/N=N/N(CC)CCO)c1", "IC50", "µM", 11.5),
    ("CCCN(C)/N=N/c1cc(-c2c(N)nc(N)nc2CC)ccc1Cl", "IC50", "µM", 7.6),
]

The measurements presented in this section are drawn from ChEMBL document CHEMBL1130062.
